System: micellar dispersion consisting of 5 mM taurocholate, 0.6 mM oleic acid and 0.1 mM radiolabeled cholesterol
Experiment: In vitro precipitation of cholesterol-carrying bile salt micelles (radioactivity in supernatant after centrifugation; turbidity at 500 nm)
Settings: charge ratio (taurocholate/precipitant) 1; PBS
REPORTED ENDPOINT: Precipitation (%)
Lab book: enter the figure in %, no units written.

Here are 3 compounds together with their reported answers.
COMPOUND	REPORTED ENDPOINT	VALUE OBSERVED
NCCCC[C@H](N)C(=O)O [Lysine]	Precipitation (%)	0
NCCCCCCCCCCN [1,10 Diaminodecane]	Precipitation (%)	0
NCCCCCCCCCCCCN [1,12 Diaminododecane]	Precipitation (%)	17

With those in mind, consider the next compound.
# input Given N=C(N)NCCC[C@H](N)C(=O)O [Arginine] , respond with its Precipitation (%).
# output 0
